// provenance: ChEMBL document CHEMBL1139720

# System: A2780
# Run Description: Antiproliferative activity against human A2780 cells after 48 hrs by SRB assay
# Format: functional
# Stated Conditions: A2780, 48 h
Endpoint Label: GI50 (µM)
Give bare numbers, in µM.

# count of solved cases: 3
COC(=O)/C=C/[C@H]1OCCC[C@@H]1O[Si](C)(C)C(C)(C)C: 28
COC(=O)/C=C\[C@H]1OCCC[C@H]1O[Si](C)(C)C(C)(C)C: 7.3
CC(C)(C)[Si](C)(C)O[C@@H]1CCCO[C@@H]1/C=C/C(=O)OCc1ccccc1: 32

// for each compound in input: emit GI50
1. C=C[C@H]1OCCC[C@H]1O[Si](C)(C)C(C)(C)C
2. O=C1C=C[C@H]2OCCC[C@H]2O1
3. CC(C)(C)[Si](C)(C)O[C@@H]1CCCO[C@@H]1CC(=O)OCc1ccccc1

Reply:
86
8.3
23
